MEASUREMENT_TARGET: T1, human PD-1-his protein (Cat#:PD1-H5221, Acro biosystems Inc.) (human, UniProt Q15116 25-167)
T1 construct: not shown: his tag
T1 sequence (Q15116 25-167 limits assumed): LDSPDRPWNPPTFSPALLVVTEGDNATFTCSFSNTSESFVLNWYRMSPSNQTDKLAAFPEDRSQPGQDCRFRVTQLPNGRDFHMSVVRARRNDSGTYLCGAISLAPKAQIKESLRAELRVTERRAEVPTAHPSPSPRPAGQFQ
TEST: BLI (Octet RED96), supernatant antibody captured on AHC sensor, human PD-1-his in solution, 1:1 fit
ASSAY_READOUT: koff (s⁻¹)
Record the value in s⁻¹, omitting the unit from your answer.

Name the recorded koff of the binder listed here: humanized antibody huE1A9C8A7-V8 (antibody, human IgG4 S228P, kappa, V domains shown, Human IgG4/kappa) VH: QVQLVQSGAEVVKPGASVKISCKASGYTFTDYVMHWVRQAPGQSLEWMGVISTYHIPAVYNQKFKGKATMTVDTSTSTVYLELSSLRSEDTAVYYCAREVYGDSYYFDVWGQGTTVTVSS VL: DIVMTQTPLSLPVTPGEPASISCRSSQSIVHSNGNTYLEWYLQKPGQSPQLLIYKVSNRFSGVPDRFSGSGSGTDFTLKISRVEAEDVGVYYCFQGSHVPYTFGGGTKVEIKR
0.000291

Let's switch to this binder now.
Name the recorded koff of the binder listed here: humanized antibody huE1A9C8A7-V11 (antibody, human IgG4 S228P, kappa, V domains shown, Human IgG4/kappa) VH: QVQLVQSGAEVVKPGASVKISCKASGYTFTDYVMHWVRQAPGQSLEWIGVISTYHIPAVYNQKFKGKATMTRDTSTSTVYLELSSLRSEDTAVYYCAREVYGDSYYFDVWGQGTTVTVSS VL: DIVMTQTPLSLPVTPGEPASISCRSSQSIVHSNGNTYLEWYLQKPGQSPQLLIYKVSNRFSGVPDRFSGSGSGTDFTLKISRVEAEDVGVYYCFQGSHVPYTFGGGTKVEIKR
0.000296
